- TARGET: EGFR E709K (Homo sapiens, UniProt P00533, E709K)
- Construct: expressed in transfected cells; host or cells: Ba/F3
- EXPERIMENT: Ba/F3 drug screening, Cell Titer Glo, IC50 Mut/WT
- Assay type: cell-based
- CONDITION_INFO: PACC; E709K; Ba/F3; 72 hours
MEASURE_NAME: ratio of IC50 for cells with mutant EGFR to IC50 for cells with wildtype EGFR (Mut/WT)

[
  {
    "SMILES_NOTATION": "CNC(=O)CN1CCC(Oc2cc3c(Nc4cccc(Cl)c4F)ncnc3cc2OC)CC1",
    "NUMERIC_VALUE": 0.1216
  },
  {
    "SMILES_NOTATION": "COc1cc2ncnc(Nc3cccc(Cl)c3F)c2cc1OC(=O)N1CCN(C)C[C@H]1C",
    "NUMERIC_VALUE": 0.3129
  },
  {
    "SMILES_NOTATION": "COc1cc2ncnc(Nc3ccc(F)c(Cl)c3)c2cc1NC(=O)/C=C/CN1CCCCC1",
    "NUMERIC_VALUE": 0.2711
  },
  {
    "SMILES_NOTATION": "CN(C)C/C=C/C(=O)Nc1cc2c(Nc3ccc(Cl)c(Br)c3)ncnc2cn1",
    "NUMERIC_VALUE": 0.03467
  }
]
